abundance fitness values by entry
B1: Gamma-crystallin C, residues 4 to 79; numbered along this chain, P07315 (parent)
chain: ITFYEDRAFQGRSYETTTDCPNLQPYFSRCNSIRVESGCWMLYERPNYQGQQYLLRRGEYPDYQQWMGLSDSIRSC

- Variants of: B1
- run-description: abundance fitness (aPCA) (normalised: wild type 0, dead -1); higher = more abundant; growth selection in yeast, the domain comes from the species named
- reported-conditions: Homo sapiens
Enter a number only.

ITFYEDRAFQGRSYEATTDCPNLQPYFSRCNSIRVESGCWMLYERPNYQGQQYLLRRGEYPDYQQWMGLSDSIRSC [T16A] ... 0.074
ITFYVDRAFQGRSYETTTDCPNLQPYFSRCNSIRVESGCWMLYERPNYQGQQYLLRRGEYPDYQQWMGLSDSIRSC [E5V] ... -0.107
ITFYEDRAFQGSSYETTTDCPNLQPYFSRCNSIRVESGCWMLYERPNYQGQQYLLRRGEYPDYQQWMGLSDSIRSC [R12S] ... -0.033

Query :: Specify measured abundance fitness for ITFYEDRACQGRSYETTTDCPNLQPYFSRCNSIRVESGCWMLYERPNYQGQQYLLRRGEYPDYQQWMGLSDSIRSC [F9C] .
Result :: 0.12

Query :: Specify measured abundance fitness for ITFYEDRAFQGRSYETTTDCPDLQPYFSRCNSIRVESGCWMLYERPNYQGQQYLLRRGEYPDYQQWMGLSDSIRSC [N22D] .
Result :: -0.004
